Recorded values, source the supplement of paper PMC9112550.

# Tested on: Escherichia coli TOP10;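 note: peptides expressed intracellularly from a pBAD plasmid library in pooled LB shake-flask culture, induced with 0.3% L-arabinose, DNA abundance read by NGS, three biological replicates, DESeq2 with apeglm shrinkage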
# assay: shrunken log2 fold change of peptide-encoding DNA abundance (4.5 h post-induction vs induction); higher = less antimicrobial activity (less host growth inhibition)
# run parameters: time post-induction: 4.5 h; library: site-saturation at positions 5, 18, 19, 20

>  <entry sequence>
RRIRIRPPRLPRPRPRPTWMPRP

>  <shrunken log2 fold change>
-0.306

$$$$
>  <entry sequence>
RRIRIRPPRLPRPRPRPRYSPRP

>  <shrunken log2 fold change>
-0.484

$$$$
>  <entry sequence>
RRIRSRPPRLPRPRPRPNAGPRP

>  <shrunken log2 fold change>
0.0362

$$$$
>  <entry sequence>
RRIRPRPPRLPRPRPRPSRDPRP

>  <shrunken log2 fold change>
-0.109

$$$$
>  <entry sequence>
RRIRRRPPRLPRPRPRPWETPRP

>  <shrunken log2 fold change>
0.00928

$$$$
>  <entry sequence>
RRIRPRPPRLPRPRPRPHYPPRP

>  <shrunken log2 fold change>
-0.0221

$$$$
>  <entry sequence>
RRIRWRPPRLPRPRPRPHLWPRP

>  <shrunken log2 fold change>
0.191

$$$$
>  <entry sequence>
RRIRHRPPRLPRPRPRPSPMPRP

>  <shrunken log2 fold change>
-0.418

$$$$
>  <entry sequence>
RRIRERPPRLPRPRPRPMKSPRP

>  <shrunken log2 fold change>
-0.163

$$$$
>  <entry sequence>
RRIRMRPPRLPRPRPRPYTSPRP

>  <shrunken log2 fold change>
-0.265

$$$$
>  <entry sequence>
RRIRLRPPRLPRPRPRPEHRPRP

>  <shrunken log2 fold change>
0.283

$$$$
>  <entry sequence>
RRIRARPPRLPRPRPRPETFPRP

>  <shrunken log2 fold change>
-0.0526

$$$$
>  <entry sequence>
RRIRTRPPRLPRPRPRPPPQPRP

>  <shrunken log2 fold change>
0.848

$$$$
>  <entry sequence>
RRIRERPPRLPRPRPRPEHLPRP

>  <shrunken log2 fold change>
0.0163

$$$$
>  <entry sequence>
RRIRKRPPRLPRPRPRPVDQPRP

>  <shrunken log2 fold change>
0.766

$$$$
